System: S. aureus ATCC 25923
Test: Antibacterial activity, microdilution assay
Format: cell-based
Details: microdilution (CLSI), 96-well, 24 h at 37 °C, absorbance 620 nm, n = 2
Ends that are not written are not given here.

# substance, target-or-test-system, MIC, S. aureus ATCC 25923 / µM
rows = [
    ("RWQWRWAWR-NH2 [Peptide A7]", "S. aureus ATCC 25923", 140),
    ("RWQWRWQAR-NH2 [Peptide A8]", "S. aureus ATCC 25923", 146),
    ("RAQWRWQWR-NH2 [Peptide A2]", "S. aureus ATCC 25923", 146),
    ("RWQWAWQWR-NH2 [Peptide A5]", "S. aureus ATCC 25923", 143),
    ("RWQWRWQWA-NH2 [Peptide A9]", "S. aureus ATCC 25923", 143),
]
